# Test: label from the status in PepcDB records
Attribute Measured: protein production

Below, each entry is followed by its recorded protein production result.
MVLKGDAKRIVAMSSTHIAMLDAIGEVRCITGVSGIDYISNPDIQARRDSIGDVGYEGNINYELLLSLDPDLVLLYGVNGASAMESKLEELDIPFMYVGDYLEESPLGKAEWMVVLSEVTGKREKGEKAFAAIPVRYNALKKKVADSTLGLEHHHHHH not failed
MISTLNEIMKCIEDNDTIIIHRHVRPDPDAYGSQLGLKYYIQQKFPQKQVFAVGEAESSLSFIGELDNIDDKTYQDALVIVCDTANAPRIDDERYSTGSKLIKIDHHPAVDQYGDINLVNTNASSTSEIIYDLISHFNDEAIVNKDIASVLYLGIVGDTGRFLFNNTSEHTMEIAGKLIGHDIDHNALLNKMMEKDPKMLPFQGYVLQHFELMDDGFCQVKITEDVLEQFGIQPNEASQFVNTIADIKGLKIWVFAVDEGSEIRCRLRSKGQLIINDIAQDFGGGGHPNASGVSVNSWDEFEQLATALRTKLN failed
MMRHERLRFWLAGLAAAATGWLCYAGLARLAGALGVATWIPYPALRRQWLLIGESWQSAEFSGAIADASVFLTALAAVAAYYCARIVYHLSFAPVRQRRARWLIAGWIVGTVAMVALSQSLGWLYGAFPGFARIGWLSAALGFAVLAGAASGFARAWGRLMRARKVPATE failed
MTLTPQELQTYLAALVRQNLQIATMIWGPPGVGKSSVVAQVARQHDLDFVDVRLSQLAPTDLRGLPVPEADAQGSGVSRWYPPEFLPRAGAGILFLDEVNMAPPTMQGMAQQLILDRRVGSYELPDGWFVWAAGNRKEDRASVFDMPAPLANRFLHLTVRPDFDSWRSYALAKGLHEHVIAFLTFRPELLWRLDPQQPAWPSPRSWEMAAQLHRAGLDASSAIGEAAGAEFAAFVRLFEQLPDLGTVLSGAGAGLKLPDEPSVRYAAVVGLAARAADAEEAYRAFTWLADSAGPEWLQLYVATLVSKFQALGQLGELAGLLGRDPRLAELVQGALSLAEGLEHHHHHH failed

# context switch: different sequence, same protein production
Problem: Quick one: protein production for MPKIWTERIFDDPEIYVLRIDDDRIRYFEAVWEIPEGISYNAYLVKLNGANVLIDGWKGNYAKEFIDALSKIVDPKEITHIIVNHTEPDHSGSLPATLKTIGHDVEIIASNFGKRLLEGFYGIKDVTVVKDGEEREIGGKKFKFVMTPWLHWPDTMVTYLDGILFSCDVGGGYLLPEILDDSNESVVERYLPHVTKYIVTVIGHYKNYILEGAEKLSSLKIKALLPGHGLIWKKDPQRLLNHYVSVAKGDPKKGKVTVIYDSMYGFVENVMKKAIDSLKEKGFTPVVYKFSDEERPAISEILKDIPDSEALIFGVSTYEAEIHPLMRFTLLEIIDKANYEKPVLVFGVHGWAPSAERTAGELLKETKFRILSFTEIKGSNMDERKIEEAISLLKKELE ?
Result: not failed

----------
# Test: label from the status in PepcDB records
Attribute Measured: protein production

Below, each entry is followed by its recorded protein production result.
MDIKYKFPFALIIASAALVGCTSNQVKKEEAKPNPLPKLAQTQTQALVPIFSQSVSSMPKADPLRLQLDTLNGVIFVPDPKGKVSAYRGKERLWTTRVTKHRLTAGTVAGEGIVVVGNIKGELIALDQQTGQQKWKAQLTGAVLSPSLIYQGRVTTIANDGTVFAHDAETGQQVWTYKMPTIQFSLRGQPSPVMLDDRTVVVASANGYVYGIDVISGVPRFQRRVAVSEGRSDIQRLIDIDGDPVVSGQYLVTVSYQGQVTVTDLTNLSVVWNQDASSNKRPAVYDNKVFVAQADGKLTAYDLGTGSKLWESDVLLNRQLSNPVMLGKDLVVGDLDGVIHLINPDSGQLIGRAKTRGEVSSLRVVDGHLYTSTRKGALTIWEVR failed
MSFALGQRWISDTESDLGLGTVVALDARTVTLMFAASEENRVYARSDAPVTRVIFNVGDVVDSQQGWSLQVEQVVEDQGVYTYLGTRVDTEESGVALREIFLSNQIRFNKPQDKLFAGQIDRMDNFVLRY not failed
MTPFPAYVPPDFTRPDLAAAPPVRVAEAPGSGVLPAGFHATSNYPEYVHLGGGRWLLASGSRMDAVLVLDGDMLRVVEPRLVRRGDRVVVGRTENGEEGIYVHTTGFDAPAGAGGDKFTFRSRGTRESPFSRSYEELYDILRHDRDHGHIVWVLGPAVAFDRDSRAAMAGLIGGGYCHALLAGNALATHDLEAALFHTGLGQDIYTQALVAGGHYHHLDVINEVLRHGSLERAIAELGIRDGIIRACLEHRVPVVLAGSIRDDGPLPDVITDSRQAQDAMRAHARRATTVIALATQLHAIAVGNMTPSYRVLDDGTVRPVYFYIVDMSEFGADKLANRGSGQARAILTNVQDFMVNLWNNLKG failed
MDLLAMNIPVSLQSKPPLWLLAELTYRCPLQCAYCSNPLDYAAVKQELSTDEWKDVFRQARAMGSVQLGFSGGEPLLRQDLSELIKYAHELGFYTNLITSGIGLTEQKIAEFSEAGLDHIQISFQASDPALSEILSGSRKAFQQKQAMALAVKKHRYPMVLNFVIHRFNIEQIDQIIELSLELNADYVELATCQFYGWAKLNQAALLPTPEQISYAQARVQAYRQYIDQHHLKTKLLLVAPDYYQERPKKCIGGWGQIFITVSPDGTVLPCQSAKDLPLEFPTIQDQSLKTIWNEAFAFNAFRGTDWMQEPCRSCPDKDKDLGGCRCQAYMLTKNMYATDPVCSKSPVHHQIVEARLQTQCSKPDISDLKLRNPQNSKLFFKRASDADSLL failed

# context switch: different sequence, same protein production
Problem: Quick one: protein production for MVDVLWDEIQNLELGQDYPTLFIPNEAYVMVEDRNRLSLIARPLLPRVQNFNAVINALPRAWGLTAHVHGRILDATYVQLLFQTEIYLLSVQRREVWLFNNWFVASQRWEAAPSLNFVTTIDLWVQMRGIPILYVFEKTELEIAQELGEIISLDFHDATSTQIAYIRVRVRFGITDRLRFFQRITFESGETALIRFQYERLRRIYSCFRFTHNLNYYPYRQRFQSIDRERAVFRDSVLRSSFNSQSQMTDSSLQVPLHPPPRVPSSGDAITSGIMRVFEVGESSRGVQDGESHNNMNLGESSKRKNLVILQRDKESRQHKQQETEQRMGGILKPPKKR ?
Result: not failed

----------
# Test: label from the status in PepcDB records
Attribute Measured: protein production

Below, each entry is followed by its recorded protein production result.
MQPQNIFDNEVFFQGYKKLRENPNSANILEEKPAIFSLLPELTGKKVLDLGCGYGENCNMFSKMGANKVVGIDVSSKMLAIANNDNSGDNIFYENMCMEDIFCINEKFDVVVSSLAVHYINDFNKLVCNVNSLLKDNGIFVFSQEHPLTTAPKNGARWFKNVDGRIAHYVLTDYATSGERTVSWIVDGITKYHRTFSDIVNALIDAGFIIEKMLEPVPTKEIIERDPSSAKDLHKPNFLVTRARKK failed
MPLSTSDNIAAVIVTHKRVELLRASLEVVAAQTHPVKWIIVVDNGCEDAVRDLLHSVAGDRGIYLPSHTNLGGAGGFAYGFLTALALGADAIWCADDDGRPEGPQVLATLIDAAVTHQLDEVSPVVCNMDDPNRLAFPLRRGLEWRRYRSELIDPNNPSDTLLPGIASLFNGALISAAAMERIGVPDLRLFIRGDEVEYHRRLVRSGLNFGTCLTTAYLHPDGSDEFKPILGGRMHTQYPASDAKRYFTYRNRGYLMNQPGMRRLLPQEYARFAWFFLIQRRDPRGFLEWFKLHQLGRSEKFERPLEHHHHHH failed
MASLEVSRSPRRSRRELEVRSPRQNKYSVLLPTYNERENLPLIVWLLVKSFSESGINYEIIIIDDGSPDGTRDVAEQLEKIYGSDRILLRPREKKLGLGTAYIHGMKHATGNYIIIMDADLSHHPKFIPEFIRKQKEGNFDIVSGTRYKGNGGVYGWDLKRKIISRGANFLTQILLRPGASDLTGSFRLYRKEVLEKLIEKCVSKGYVFQMEMIVRARQLNYTIGEVPISFVDRVYGESKLGGNEIVSFLKGLLTLFATT failed
MDTPSRRSFLLAGGSFAIGVGAGLGIAHRDDVLPSRVVWAFETTGRIVSSPTVGDGTVYVGSDDSTVHSVSTSDGTRRTTARLHTKAGVFSSPALGADGGLYVGSTDTAIYGLFSSPGARDEWRFETTDWVTASPAVADGTVYVGSTDGTMYALNAETGAEQWRFETGDGIVSSPAVVDGTVYVGSTDGTVYALDADSGTDRWQFDTEGRVYSSPTVADGTVYVGSYDANIYAIDTTDGVEQWQFETGDSIWSSPTVLEETLWIGSKDAALYAVATEDGSEQWRFPTGGEVNSSPTVAGETVYVGSDDANLYAVAASDGSERWTFETGGAVQSSPTVADGTVYVGSGDSTLYALDADETGSSEGSRAELRTLGYFAE failed

Problem: Quick one: protein production for MPLLTIGDQFPAYQLTALIGGDLSKVDAKQPGDYFTTITSDEHPGKWRVVFFWPKDFTFVCPTEIAAFSKLNDEFEDRDAQILGVSIDSEFAHFQWRAQHNDLKTLPFPMLSDIKRELSQAAGVLNADGVADRVTFIVDPNNEIQFVSATAGSVGRNVDEVLRVLDALQSDELCACNWRKGDPTLDAGELLKASA ?
Result: not failed

Problem: Next entry: IRQRKRAERALNDQLEFMRVLIDGTPNPIYVRDKEGRMLLCNDAYLDTFGVTADAVLGKTIPEANVVGDPALAREMHEFLLTRMAAEREPRFEDRDVTLHGRTRHVYQWTVPYGDSLGELKGIIGGWIDIT
Result: failed

Problem: Next entry: MREMQIMSQPEQSRLDLFIDRMVSQRACLEHAIAQTAGLSGPVYELGLGNGRTYHHLRQHVQGREIYVFERAVASHPDSTPPEAQLILGDIRETLPATLERFGATASLVHADLGGHNREKNDRFARLISPLIEPHLAQGGLMVSSDRMYFEGLEELPLPPGAVVGRCFIYRRG
Result: not failed
